B1: CCDC6 (parent)
chain: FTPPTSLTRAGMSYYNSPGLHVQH

Variants of: B1
test_description: protein stability index of a GFP-peptide fusion (GPS, HEK-293T) (PSI 1-6); higher = more stable;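 also: lentivirally expressed fusions sorted by FACS into six bins by GFP to DsRed ratio, PSI derived from sequencing read proportions per bin multiplied by bin number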
test_parameters: c terminus: a fixed tail appended
observation_type: protein stability index

> print(dat)
    mutation   val
 1       T5G  2.07
 2       P4Q  2.48
 3      G11F  1.68
 4      H21M   1.6
 5      Q23P  1.79
 6       T8Y   1.5
 7      Q23T  1.73
 8      G11K  1.19
 9      V22Y  2.32
10      S13W   1.3
11      G19W   1.8
12       L7K  2.59
13      N16Q  1.94
14      G19A  1.98
15      P18I  2.06
16      Y14W  1.67
17      H24W  1.38
18       F1W  2.14
19      G11R  1.68
20       F1L  1.89
